system: Vascular endothelial growth factor receptor 2 (Homo sapiens, UniProt P35968)
Sequence (P35968 whole entry): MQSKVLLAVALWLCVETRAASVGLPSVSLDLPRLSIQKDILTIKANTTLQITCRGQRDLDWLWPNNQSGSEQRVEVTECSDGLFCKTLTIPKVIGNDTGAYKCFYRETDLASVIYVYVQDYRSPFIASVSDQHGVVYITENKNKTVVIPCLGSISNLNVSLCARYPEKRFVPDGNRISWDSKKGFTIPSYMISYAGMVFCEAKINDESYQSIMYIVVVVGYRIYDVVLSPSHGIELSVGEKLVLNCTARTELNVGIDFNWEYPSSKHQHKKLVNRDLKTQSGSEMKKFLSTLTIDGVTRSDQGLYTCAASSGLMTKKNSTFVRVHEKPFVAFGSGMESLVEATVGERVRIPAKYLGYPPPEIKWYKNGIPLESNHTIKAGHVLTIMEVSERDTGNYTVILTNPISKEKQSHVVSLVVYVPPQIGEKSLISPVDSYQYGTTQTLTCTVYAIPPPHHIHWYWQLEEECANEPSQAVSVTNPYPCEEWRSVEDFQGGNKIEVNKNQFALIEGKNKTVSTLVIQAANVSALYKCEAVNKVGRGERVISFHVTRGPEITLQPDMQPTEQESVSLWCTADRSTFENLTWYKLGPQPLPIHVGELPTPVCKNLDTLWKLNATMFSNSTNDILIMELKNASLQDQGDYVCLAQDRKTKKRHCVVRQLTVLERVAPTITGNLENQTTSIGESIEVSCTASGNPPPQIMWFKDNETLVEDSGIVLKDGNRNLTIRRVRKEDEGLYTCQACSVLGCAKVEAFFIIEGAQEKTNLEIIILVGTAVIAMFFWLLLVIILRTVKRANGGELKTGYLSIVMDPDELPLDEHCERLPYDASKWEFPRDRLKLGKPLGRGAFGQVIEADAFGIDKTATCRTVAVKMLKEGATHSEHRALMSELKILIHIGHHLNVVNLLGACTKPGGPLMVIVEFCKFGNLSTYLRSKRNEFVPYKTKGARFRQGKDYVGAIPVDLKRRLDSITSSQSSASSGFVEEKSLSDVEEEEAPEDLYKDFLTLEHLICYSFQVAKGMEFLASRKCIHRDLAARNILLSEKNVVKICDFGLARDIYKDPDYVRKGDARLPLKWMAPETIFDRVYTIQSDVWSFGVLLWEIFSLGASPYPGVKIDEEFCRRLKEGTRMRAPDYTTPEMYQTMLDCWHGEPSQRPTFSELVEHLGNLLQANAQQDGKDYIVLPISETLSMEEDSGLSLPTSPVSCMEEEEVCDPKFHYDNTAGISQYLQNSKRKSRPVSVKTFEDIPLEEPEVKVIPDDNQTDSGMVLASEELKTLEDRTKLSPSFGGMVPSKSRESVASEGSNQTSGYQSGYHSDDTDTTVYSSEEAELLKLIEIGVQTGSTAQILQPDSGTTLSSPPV
property_measured: pIC50
Field pIC50 (float): negative decimal logarithm of the concentration in molar.

Any idea what pIC50 came out for O=C(Nc1ccc(Cl)cc1)c1ccccc1SCc1ccncc1 on Vascular endothelial growth factor receptor 2 (Homo sapiens, UniProt P35968)?
7.34

Reference for the values: ChEMBL document CHEMBL1145619
